TGT: OfurOR4 (Ostrinia furnacalis)
Construct: gene OR4; full-length ORF from male antennal cDNA, untagged, in PT7TS; cRNA co-injected 1:1 with OfurOrco in Xenopus oocytes; naming of Yang et al. 2015 (group OR4 = OnubOR3 of Wanner/Leary); with Odorant receptor co-receptor (Orco)
Sequence (A0A0E3VLP9 1-422): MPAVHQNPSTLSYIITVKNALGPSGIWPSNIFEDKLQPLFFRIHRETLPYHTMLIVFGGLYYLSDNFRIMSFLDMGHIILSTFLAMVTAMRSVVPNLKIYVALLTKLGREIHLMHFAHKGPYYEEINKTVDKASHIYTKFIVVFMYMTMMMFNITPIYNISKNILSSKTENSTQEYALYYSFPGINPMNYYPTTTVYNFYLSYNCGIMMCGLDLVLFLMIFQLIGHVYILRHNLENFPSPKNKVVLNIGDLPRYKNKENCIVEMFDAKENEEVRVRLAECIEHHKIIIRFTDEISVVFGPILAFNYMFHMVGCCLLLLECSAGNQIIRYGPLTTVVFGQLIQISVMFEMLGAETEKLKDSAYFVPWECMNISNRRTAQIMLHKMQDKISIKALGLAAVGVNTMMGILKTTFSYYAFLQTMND
Sequence (A0A0E4B591 1-474 partner): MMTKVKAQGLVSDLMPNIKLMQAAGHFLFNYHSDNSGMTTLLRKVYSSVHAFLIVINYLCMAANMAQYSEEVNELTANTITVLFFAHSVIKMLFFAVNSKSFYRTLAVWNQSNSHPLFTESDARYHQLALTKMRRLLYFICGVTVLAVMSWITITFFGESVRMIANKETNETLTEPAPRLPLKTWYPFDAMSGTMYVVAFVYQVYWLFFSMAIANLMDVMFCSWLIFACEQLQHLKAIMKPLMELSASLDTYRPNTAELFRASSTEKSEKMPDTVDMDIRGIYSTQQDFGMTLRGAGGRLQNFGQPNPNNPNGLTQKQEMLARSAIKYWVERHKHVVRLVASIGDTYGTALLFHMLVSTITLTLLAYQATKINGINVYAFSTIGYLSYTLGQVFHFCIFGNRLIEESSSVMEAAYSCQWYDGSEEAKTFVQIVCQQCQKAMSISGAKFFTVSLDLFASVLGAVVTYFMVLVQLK
PROCEDURE_TEXT: two-electrode voltage clamp, Xenopus oocytes
Format: cell-based
SETUP_CONDITIONS: pH 7.6 Ringer's buffer, -80 mV, co-expressed OfurOrco, agonist
RECORDED_ENDPOINT: current at 100 μM

Query: Form field: reported current at 100 μM of C/C=C\CCCCCCCCCCCOC(C)=O [Z12-14:OAc, (Z)-12-tetradecenyl acetate]
Reply: 1876.8 ± 165 nA

From: paper PMC5974041
